molecular target: T1, HLA-A2.1 MHC class I on the surface of T2 cells; assay: T2 MHC class I stabilisation, flow cytometry with anti HLA-A2.1 mAb, peptide at 1 ug (printed '1 lg'), n = 3
T1 construct: whole, on cells; MHC class I molecule stabilised on T2 cells by added peptide
Attribute: Mean T2 binding ratio
VALUE_TYPE: Mean T2 binding ratio

BINDER | RESULT
LIIPSLERL (Synthetic peptide) [T21:656 peptide] | 0.955 ratio to DMSO control
SLERLVNAI (Synthetic peptide) [T21:660 peptide] | 0.918 ratio to DMSO control
VIAKFQNKL (Synthetic peptide) [T21:607 peptide] | 0.951 ratio to DMSO control
YLIHLLQEL (Synthetic peptide) [T21:765 peptide] | 0.955 ratio to DMSO control

Origin of measurements: patent US20100297136A1
